// data source = ChEMBL document CHEMBL3875225

Experiment: Antiproliferative activity against human DU145 cells after 48 hrs by MTT assay
Type: functional, cell-based, DU-145
Conditions: Homo sapiens, DU-145, 48 h
pIC50: −log10 of the molar value.
# maps each entry to its pIC50
PARAMETER: pIC50

{"columns": ["SMILES NOTATION", "PARAMETER", "OBS VALUE"],
 "data": [
  ["COc1cc(-c2cc(C(=O)O)c3cc4c(cc3n2)OCCO4)ccc1O", "pIC50", "< 4.00"],
  ["COc1cc(-c2cc(CO)c3cc4c(cc3n2)OCCO4)cc(OC)c1OC", "pIC50", 4.19],
  ["CC(=O)Nc1ccc(-c2cc(C(=O)O)c3cc4c(cc3n2)OCCO4)cc1", "pIC50", "< 4.00"],
  ["COc1ccc(-c2cc(C(=O)O)c3cc4c(cc3n2)OCCO4)cc1O", "pIC50", "< 4.00"],
  ["COc1ccc(-c2cc(CO)c3cc4c(cc3n2)OCCO4)cc1O", "pIC50", 4.05],
  ["COc1cc(-c2cc(C(=O)O)c3cc4c(cc3n2)OCCO4)cc(OC)c1OC", "pIC50", "< 4.00"],
  ["O=C(O)c1cc(-c2ccc(O)cc2)nc2cc3c(cc12)OCCO3", "pIC50", "< 4.00"]
]}

###

Experiment: Antiproliferative activity against human A549 cells after 48 hrs by MTT assay
Type: functional, cell-based
Conditions: Homo sapiens, A549, 48 h
pIC50: −log10 of the molar value.
Each entry below carries its recorded pIC50.
PARAMETER: pIC50

{"columns": ["SMILES NOTATION", "OBS VALUE"],
 "data": [
  ["COc1cc(-c2cc(CO)c3cc4c(cc3n2)OCCO4)cc(OC)c1OC", 4.33],
  ["OCc1cc(-c2ccccc2)nc2cc3c(cc12)OCCO3", "< 4.00"],
  ["CC(=O)Nc1ccc(-c2cc(C(=O)O)c3cc4c(cc3n2)OCCO4)cc1", "< 4.00"],
  ["COc1cc(-c2cc(CO)c3cc4c(cc3n2)OCCO4)ccc1O", 4.06],
  ["COc1cc(-c2cc(C(=O)O)c3cc4c(cc3n2)OCCO4)ccc1O", "< 4.00"],
  ["COc1ccc(-c2cc(C(=O)O)c3cc4c(cc3n2)OCCO4)cc1OC", "< 4.00"],
  ["COc1ccc(-c2cc(C(=O)O)c3cc4c(cc3n2)OCCO4)cc1O", "< 4.00"]
]}

###

pIC50 values by entry
Test: Antiproliferative activity against human DU145 cells after 48 hrs by MTT assay
Assay type: functional, cell-based, DU-145
Settings: Homo sapiens, DU-145, 48 h
pIC50: −log10 of the molar value.

{"columns": ["SMILES NOTATION", "COMPARISON SYMBOL", "pIC50"],
 "data": [
  ["COc1ccc(-c2cc(C(=O)O)c3cc4c(cc3n2)OCCO4)cc1", "<", 4.00],
  ["Cc1ccc(-c2cc(C(=O)O)c3cc4c(cc3n2)OCCO4)cc1", "<", 4.00],
  ["COc1ccc(-c2cc(C(=O)O)c3cc4c(cc3n2)OCCO4)cc1OC", "<", 4.00],
  ["OCc1cc(-c2ccccc2)nc2cc3c(cc12)OCCO3", "=", 4.06],
  ["COc1ccc(-c2cc(CO)c3cc4c(cc3n2)OCCO4)cc1OC", "=", 4.94],
  ["O=C(O)c1cc(-c2cccc(O)c2)nc2cc3c(cc12)OCCO3", "<", 4.00],
  ["COc1cc(-c2cc(CO)c3cc4c(cc3n2)OCCO4)ccc1O", "=", 4.06],
  ["COc1ccc(-c2cc(CO)c3cc4c(cc3n2)OCCO4)cc1", "=", 4.67],
  ["O=C(O)c1cc(-c2ccccc2)nc2cc3c(cc12)OCCO3", "<", 4.00],
  ["C=CCNC1=C2C[C@@H](C)C[C@H](OC)[C@H](O)[C@@H](C)/C=C(\\C)[C@H](OC(N)=O)[C@@H](OC)/C=C\\C=C(/C)C(=O)NC(=CC1=O)C2=O", "=", 6.55]
]}
